Test: DRUGMATRIX: Glutamate, NMDA, Phencyclidine radioligand binding (ligand: [3H] TCP)
Assay type: cell membranes, Rattus norvegicus, Wistar, Cerebral cortex, Membrane
Details: Not Active = under 50% inhibition at 10 µM
experimental_readout: Ki

# example entries with known answers
CCc1ccc(C(=O)C(C)CN2CCCCC2)cc1 (stereo not drawn); Not Active
CC1CN(c2cc3c(cc2F)c(=O)c(C(=O)O)cn3-c2ccc(F)cc2F)CCN1 (stereo not drawn); Not Active
Nc1nc2c(ncn2COC(CO)CO)c(=O)[nH]1; Not Active
O=C(O)c1cn(C2CC2)c2cc(N3CCNCC3)c(F)cc2c1=O; Not Active

What value of measured Ki is listed for `NCC[C@H](O)C(=O)N[C@@H]1C[C@H](N)[C@@H](O[C@H]2O[C@H](CN)[C@@H](O)[C@H](O)[C@H]2O)[C@H](O)[C@H]1O[C@H]1O[C@H](CO)[C@@H](O)[C@H](N)[C@H]1O` ?
Not Active

Give the measured Ki of CC1=Nc2ccc(Cl)cc2S(=O)(=O)N1 [DIAZOXIDE] .
Not Active

Fill in: Ki of `COC1=CC(=O)C[C@@H](C)[C@]12Oc1c(Cl)c(OC)cc(OC)c1C2=O` is ___
Not Active

I'd like to know its Ki. The compound in question is `Fc1ccc([C@@H]2CCNC[C@H]2COc2ccc3c(c2)OCO3)cc1`
Not Active

* * *

Target: UniProtKB P18825
Sequence (P18825 whole entry): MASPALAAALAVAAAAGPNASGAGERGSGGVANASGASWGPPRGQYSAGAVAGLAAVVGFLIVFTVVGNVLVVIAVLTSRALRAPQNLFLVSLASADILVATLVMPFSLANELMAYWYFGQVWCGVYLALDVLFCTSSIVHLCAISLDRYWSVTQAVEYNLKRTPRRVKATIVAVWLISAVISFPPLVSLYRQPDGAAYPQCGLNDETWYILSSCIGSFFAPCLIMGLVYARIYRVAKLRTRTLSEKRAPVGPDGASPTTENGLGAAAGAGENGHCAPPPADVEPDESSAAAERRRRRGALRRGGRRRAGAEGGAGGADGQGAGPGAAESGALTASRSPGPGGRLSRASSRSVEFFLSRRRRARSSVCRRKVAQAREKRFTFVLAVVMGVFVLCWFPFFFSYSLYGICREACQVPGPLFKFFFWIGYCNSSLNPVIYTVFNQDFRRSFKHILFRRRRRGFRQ
Assay: DRUGMATRIX: Adrenergic Alpha-2C radioligand binding (ligand: [3H] MK-912)
Assay type: cell membranes, Sf9, Membrane
Conditions: read-out: Ki
Listed here are compounds together with their documented Ki.
Expressed in nM, but write only the number.

Before answering, review these 2 worked examples.
CN1C[C@H](C(=O)N[C@]2(C)O[C@@]3(O)[C@@H]4CCCN4C(=O)[C@H](Cc4ccccc4)N3C2=O)C=C2c3cccc4[nH]cc(c34)C[C@H]21; 1.81
Oc1c(Cl)cc(Cl)cc1Sc1cc(Cl)cc(Cl)c1O; 638

Next item in the queue.
Param item = CN1CCN2c3ccccc3Cc3ccccc3C2C1 (stereo not drawn) ; retrieve measured Ki.
26

* * *

Target: Alpha-2A adrenergic receptor (Homo sapiens); note: in other assays of this panel Not Active means under 50% inhibition at 10 µM
Sequence (P08913 whole entry): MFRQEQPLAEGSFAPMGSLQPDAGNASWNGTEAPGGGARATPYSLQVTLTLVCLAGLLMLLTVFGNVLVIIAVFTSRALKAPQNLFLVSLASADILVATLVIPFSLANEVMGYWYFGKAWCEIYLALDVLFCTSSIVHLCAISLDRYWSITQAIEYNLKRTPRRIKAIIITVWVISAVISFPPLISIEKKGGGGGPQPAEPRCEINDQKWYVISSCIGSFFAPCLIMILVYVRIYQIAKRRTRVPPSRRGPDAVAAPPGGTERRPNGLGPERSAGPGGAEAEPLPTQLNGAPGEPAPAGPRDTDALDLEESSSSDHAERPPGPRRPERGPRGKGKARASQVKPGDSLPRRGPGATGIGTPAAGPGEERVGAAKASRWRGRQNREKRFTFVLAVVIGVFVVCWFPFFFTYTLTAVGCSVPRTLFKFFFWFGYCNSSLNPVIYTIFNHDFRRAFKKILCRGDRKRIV
Assay type: cell membranes, Sf9, Membrane
Conditions: sf9; read-out: Ki
experimental_readout: pKi
For clarity, pKi is expressed as the negative log10 of concentration in mol/L.

Quick check: pKi of `IVERMECTIN` ?
5.66

* * *

Assay: DRUGMATRIX: Leukotriene, BLT (LTB4) radioligand binding (ligand: [3H]LTB4)
Assay type: cell membranes, Membrane
Details: u-937; Not Active = under 50% inhibition at 10 µM
experimental_readout: IC50

CCOC(=O)[C@H](CCc1ccccc1)N[C@@H](C)C(=O)N1[C@H](C(=O)O)C[C@@H]2CCC[C@@H]21; Not Active
CN[C@H](CC(C)C)C(=O)N[C@H]1C(=O)N[C@@H](CC(N)=O)C(=O)N[C@H]2C(=O)N[C@H]3C(=O)N[C@H](C(=O)N[C@H](C(=O)O)c4cc(O)cc(O)c4-c4cc3ccc4O)[C@H](O)c3ccc(c(Cl)c3)Oc3cc2cc(c3O[C@@H]2O[C@H](CO)[C@@H](O)[C@H](O)[C@H]2O[C@H]2C[C@](C)(N)[C@H](O)[C@H](C)O2)Oc2ccc(cc2Cl)[C@H]1O; Not Active
CCCc1cc(=O)[nH]c(=S)[nH]1; Not Active
OCc1ccccc1; Not Active
CN(C)[C@@H]1C(O)=C(C(N)=O)C(=O)[C@@]2(O)C(O)=C3C(=O)c4c(O)cccc4[C@@](C)(O)[C@H]3C[C@@H]12; Not Active

Quick check: IC50 of `Cc1ccccc1N1CCN(CCc2nnc3n2CCCC3)CC1` ?
Not Active

Item under review: `COC(=O)C1=C(C)NC(C)=C(C(=O)OC)C1c1ccccc1[N+](=O)[O-]` . Reported IC50?
Not Active

Please look up its IC50: COc1ccc(C(CN(C)C)C2(O)CCCCC2)cc1 (stereo not drawn)
Not Active

* * *

Experiment: DRUGMATRIX: ATPase, Na+/K+ enzyme inhibition (substrate: ATP)
Assay type: tissue-based, Sus scrofa, Heart
Conditions: Not Active = under 50% inhibition at 10 µM
experimental_readout: Ki

COC(=O)[C@@H]1[C@H]2C[C@H]3c4[nH]c5ccccc5c4CCN3C[C@@H]2CC[C@@H]1O; Not Active
COC1=CC(=O)C[C@@H](C)[C@]12Oc1c(Cl)c(OC)cc(OC)c1C2=O; Not Active
Nc1ccc(S(N)(=O)=O)cc1 [SULFANILAMIDE]; Not Active
CN1C(C(=O)Nc2ccccn2)=C(O)c2ccccc2S1(=O)=O; Not Active
CO[C@@H]1[C@@H](O[C@@H]2O[C@H](C)[C@@H](O[C@H]3C[C@@](C)(O)[C@@H](OC(=O)CC(C)C)[C@H](C)O3)[C@H](N(C)C)[C@H]2O)[C@@H](CC=O)C[C@@H](C)[C@@H](O)/C=C/C=C/C[C@@H](C)OC(=O)C[C@H]1O; Not Active
NC(=O)c1ncn([C@@H]2O[C@H](CO)[C@@H](O)[C@H]2O)n1; Not Active
NS(=O)(=O)c1cc2c(cc1Cl)NCNS2(=O)=O [HYDROCHLOROTHIAZIDE]; Not Active
Cn1cnc([N+](=O)[O-])c1Sc1ncnc2nc[nH]c12; Not Active
C[C@]12CCC(=O)C=C1CC[C@@H]1[C@@H]2C(=O)C[C@@]2(C)[C@H]1CC[C@]2(O)C(=O)CO; Not Active
NCCCC[C@H](N[C@@H](CCc1ccccc1)C(=O)O)C(=O)N1CCC[C@H]1C(=O)O [LISINOPRIL ANHYDROUS]; Not Active

I'd like to know its Ki. The compound in question is `COc1ccc2c(c1)c(CC(=O)OCC(=O)O)c(C)n2C(=O)c1ccc(Cl)cc1`
Not Active

May I ask what Ki has been recorded for `O=c1[nH]cc(F)c(=O)[nH]1` ?
Not Active

Using the record for `Brc1ccccc1` , report its Ki.
Not Active

# Ki lookup, item CC[N+](CC)(CC)CCOc1cccc(OCC[N+](CC)(CC)CC)c1OCC[N+](CC)(CC)CC.[I-].[I-].[I-] [GALLAMINE TRIETHIODIDE]
Not Active

# get_value(readout='Ki', item= `CCCCOC(=O)c1ccc(N)cc1` )
Not Active

Give the measured Ki of `O=C1c2c(O)ccc(O)c2C(=O)c2c(NCCNCCO)ccc(NCCNCCO)c21` .
Not Active

* * *

Molecular target: Leukotriene C4 synthase (Cavia porcellus);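 note: enzyme inhibition assay of leukotriene C4 synthase, using LTA4 as the substrate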; note: in other assays of this panel Not Active means under 50% inhibition at 10 µM
Sequence (A6XA80 whole entry): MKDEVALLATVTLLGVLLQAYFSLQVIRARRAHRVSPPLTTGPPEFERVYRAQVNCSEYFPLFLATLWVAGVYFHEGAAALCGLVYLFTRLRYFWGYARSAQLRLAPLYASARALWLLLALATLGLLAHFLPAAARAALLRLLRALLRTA
Assay: biochemical
Format: tissue-based, Lung
Details: read-out: IC50
experimental_readout: pIC50
The quantity pIC50 is defined as the negative base-10 logarithm of the molar concentration.

Any idea what its pIC50 is? The molecule is `COc1ccc2cc(CC(=O)O)ccc2c1`
4.30

* * *

Molecular target: C-C chemokine receptor type 5 (Homo sapiens); note: in other assays of this panel Not Active means under 50% inhibition at 10 µM
Sequence (P51681 whole entry): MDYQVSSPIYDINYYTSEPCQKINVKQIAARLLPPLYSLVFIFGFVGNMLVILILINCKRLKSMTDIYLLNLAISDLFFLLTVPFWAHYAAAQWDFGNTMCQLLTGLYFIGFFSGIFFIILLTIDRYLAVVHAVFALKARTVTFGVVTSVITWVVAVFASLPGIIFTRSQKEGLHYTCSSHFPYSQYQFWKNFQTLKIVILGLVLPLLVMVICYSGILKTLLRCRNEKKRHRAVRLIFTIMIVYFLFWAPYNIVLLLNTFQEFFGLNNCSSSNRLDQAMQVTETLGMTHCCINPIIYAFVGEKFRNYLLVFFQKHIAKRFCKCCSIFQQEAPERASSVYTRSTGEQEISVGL
Assay type: cell membranes, Membrane
Conditions: hek293
Where a SMILES comes first, the peptide text is derived from it. Bridges are numbered along the chain shown (N, C = ends). [ ]: non-standard residue; d: D form. The star is where a group is joined. Ileψ(thiazoline)Cys = CC[C@H](C)[C@H](N)C1=N[C@H](C(=O)*)CS1; dOrn = NCCC[C@@H](N)C(=O)O
experimental_readout: IC50

Some molecules with recorded IC50:
CC[C@H](C)[C@H](N)C1=N[C@H](C(=O)N[C@@H](CC(C)C)C(=O)N[C@H](CCC(=O)O)C(=O)N[C@H](C(=O)N[C@H]2CCCCNC(=O)[C@H](CC(N)=O)NC(=O)[C@@H](CC(=O)O)NC(=O)[C@H](Cc3cnc[nH]3)NC(=O)[C@@H](Cc3ccccc3)NC(=O)[C@H]([C@@H](C)CC)NC(=O)[C@@H](CCCN)NC2=O)[C@@H](C)CC)CS1 [BACITRACIN] ({Ileψ(thiazoline)Cys}-L[dE]IK[dOrn]I[dF]H[dD]N; lactam 4-C); Not Active
COc1ccc2c(c1)c(CC(=O)OCC(=O)O)c(C)n2C(=O)c1ccc(Cl)cc1; Not Active
c1ccc2[nH]c(-c3cscn3)nc2c1; Not Active
O=[N+]([O-])c1cc([As](=O)(O)O)ccc1O; Not Active

What measured IC50 goes with O=P1(NCCCl)OCCCN1CCCl (configuration not stated) [IFOSFAMIDE] ?
Not Active

Requested read-out: IC50. Entry: `O=C1CCc2cc(OCCCCc3nnnn3C3CCCCC3)ccc2N1`
Not Active

Please look up its IC50: `C[C@]12CCC(=O)C=C1CC[C@@H]1[C@@H]2C(=O)C[C@@]2(C)[C@H]1CC[C@]2(O)C(=O)CO`
Not Active
